Each entry below lists one item and its recorded Fold IC50 increase relative to wild-type value.
- measured.target: HIV-1 JR-CSF Env N411A (HIV-1 (isolate JR-CSF)) (UniProt P20871)
- experiment: cell-based or functional assay
Hi! Could you send only the number? It should be in fold, unit omitted.

// field: Fold IC50 increase relative to wild-type; key: PGT-128 (antibody, V domains shown) VH: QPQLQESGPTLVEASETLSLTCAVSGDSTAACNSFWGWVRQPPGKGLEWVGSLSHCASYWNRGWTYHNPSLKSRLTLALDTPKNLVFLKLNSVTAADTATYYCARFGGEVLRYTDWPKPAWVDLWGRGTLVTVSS VL: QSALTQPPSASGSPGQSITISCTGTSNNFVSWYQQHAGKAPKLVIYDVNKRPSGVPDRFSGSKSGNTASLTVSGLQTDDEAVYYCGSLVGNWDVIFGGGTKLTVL ; value = 0.7

// field: Fold IC50 increase relative to wild-type; key: PGT-131 (antibody, V domains shown) VH: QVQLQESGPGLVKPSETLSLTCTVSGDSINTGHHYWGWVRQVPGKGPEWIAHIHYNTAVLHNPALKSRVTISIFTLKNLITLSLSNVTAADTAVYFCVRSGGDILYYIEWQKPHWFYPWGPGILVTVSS VL: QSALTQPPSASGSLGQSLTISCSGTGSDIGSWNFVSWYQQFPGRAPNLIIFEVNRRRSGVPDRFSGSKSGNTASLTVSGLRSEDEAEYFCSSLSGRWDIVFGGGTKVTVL ; value = 0.6

// field: Fold IC50 increase relative to wild-type; key: PGT-126 (antibody, V domains shown) VH: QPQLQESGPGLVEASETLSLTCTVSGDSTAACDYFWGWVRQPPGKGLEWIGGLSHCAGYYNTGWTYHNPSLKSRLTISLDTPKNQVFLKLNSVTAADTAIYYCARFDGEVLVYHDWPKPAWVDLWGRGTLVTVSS VL: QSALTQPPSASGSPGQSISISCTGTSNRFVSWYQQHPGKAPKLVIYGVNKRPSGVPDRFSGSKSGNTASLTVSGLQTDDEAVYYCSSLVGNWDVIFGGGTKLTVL ; value = 0.7
